Structures can show the parent of a compound that is named as a salt.

| Molecule | melting point |
| --- | --- |
| NC(=O)c1ccc2ccn(C3CCN(CCc4ccc(F)cc4)CC3)c2c1 | 238 to 240 °C |
| CNC(=O)NCc1ccc2ccn(C3CCN(CCc4ccc(F)cc4)CC3)c2c1 | 192 °C (dec.) |
| O=C(CCO)NCc1ccc2ccn(C3CCN(CCc4ccccc4F)CC3)c2c1 | 58 to 59 °C |
| CC(=O)NCc1ccc2ccn(C3CCN(CCc4ccc(F)cc4)CC3)c2c1 | 127 to 128 °C |
| CC(=O)Nc1ccc2ccn(C3CCN(CCc4ccc(F)cc4)CC3)c2c1 | 195 to 196 °C |
| O=C(NCc1ccc2ccn(C3CCN(CCc4ccc(F)cc4)CC3)c2c1)n1ccnc1 (as salt: oxalate) | 156 to 157 °C |
| CCC(=O)NCc1ccc2ccn(C3CCN(CCc4ccc(F)cc4)CC3)c2c1 | 141 to 142 °C |
| CC(C)NC(=O)Cc1ccc2ccn(C3CCN(CCc4ccc(F)cc4)CC3)c2c1 | 146 to 148 °C |
| CC(=O)NCc1ccc2ccn(C3CCN(CCc4ccc(Cl)cc4)CC3)c2c1 | 148 to 149 °C |
| NC(=O)Cc1ccc2ccn(C3CCN(CCc4ccc(F)cc4F)CC3)c2c1 | 156.9 to 157.8 °C |
| O=S(=O)(CCCCl)NCc1ccc2ccn(C3CCN(CCc4ccc(F)cc4)CC3)c2c1 | 143 to 145 °C |
| CN(C)C(=O)Cc1ccc2ccn(C3CCN(CCc4ccc(F)cc4)CC3)c2c1.O=C(O)C(=O)O | 170.1 to 170.6 °C |
| CCC(=O)NCc1ccc2ccn(C3CCN(CCc4ccccc4F)CC3)c2c1 | 118 to 119 °C |
| O=C(CCl)NCc1ccc2ccn(C3CCN(CCc4ccc(F)cc4)CC3)c2c1 | 143 to 144 °C |
| O=C(Cc1ccc2ccn(C3CCN(CCc4ccc(F)cc4)CC3)c2c1)NCC1OCCO1 | 173.8 to 174.6 °C |
| CC(=O)NCc1ccc2ccn(C3CCN(CCc4ccccc4F)CC3)c2c1 | 101 to 102 °C |
| CC(=O)NCc1ccc2ccn(C3CCN(CCCCc4ccc(F)cc4)CC3)c2c1 | 59 to 60 °C |
| COc1ccc2c(c1C)N(C1CCN(CCc3ccc(F)cc3)CC1)CCC2 (as salt: oxalate) | 176 to 178 °C |
| OCc1ccc2ccn(C3CCN(CCc4ccccc4F)CC3)c2c1 | 116.8 to 117.5 °C |
| CCNC(=O)Cc1ccc2ccn(C3CCN(CCc4ccc(F)cc4)CC3)c2c1 | 159.6 to 160.1 °C |
| O=C(Cc1ccc2ccn(C3CCN(CCc4ccc(F)cc4)CC3)c2c1)NC1CC1 | 156.4 to 156.8 °C |
| OCCOc1ccc2ccn(C3CCN(CCc4ccc(F)cc4)CC3)c2c1 | 118 to 119 °C |
| O=C(NCc1ccc2ccn(C3CCN(CCc4ccc(F)cc4)CC3)c2c1)C(F)F | 79 to 80 °C |
| OCCCc1ccc2ccn(C3CCN(CCc4ccc(F)cc4)CC3)c2c1 | 131 to 133 °C |
| O=C(CCl)NCc1ccc(CCN2CCC(N3CCc4ccccc43)CC2)cc1 (as salt: oxalate) | 138 °C |

---

Molecular target: serotonin 2 receptor (Rattus norvegicus)
Sequence (P14842 whole entry): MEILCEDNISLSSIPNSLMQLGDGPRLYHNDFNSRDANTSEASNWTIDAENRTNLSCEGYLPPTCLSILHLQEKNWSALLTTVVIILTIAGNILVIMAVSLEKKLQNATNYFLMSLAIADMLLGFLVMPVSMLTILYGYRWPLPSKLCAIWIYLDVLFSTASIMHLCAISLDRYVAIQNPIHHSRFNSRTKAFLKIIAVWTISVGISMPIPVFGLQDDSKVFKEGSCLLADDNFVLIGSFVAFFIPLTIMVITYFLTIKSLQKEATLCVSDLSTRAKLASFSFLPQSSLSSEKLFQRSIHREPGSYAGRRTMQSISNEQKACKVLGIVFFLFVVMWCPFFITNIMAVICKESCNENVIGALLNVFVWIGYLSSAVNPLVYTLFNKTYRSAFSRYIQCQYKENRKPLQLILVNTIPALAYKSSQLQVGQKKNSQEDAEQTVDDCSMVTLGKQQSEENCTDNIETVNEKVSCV
Experiment: Binding test on [3H] ketanserin (serotonin 2 receptor)
Settings: [3H] ketanserin 0.3 nM, receptor fraction of rat cerebral cortex; read-out: 5HT2
pKi: −log10 of the molar value.

| Compound | pKi |
| --- | --- |
| CC(=O)NCc1ccc(CCN2CCC(n3ccc4ccccc43)CC2)cc1 [Example 288] | 10.00 |
| NCc1ccc2c(c1)N(C1CCN(CCc3ccc(F)cc3)CC1)CC2 [Example 132] | 7.85 |
| O=Cc1ccc2c(c1)N(C1CCN(CCc3ccc(F)cc3)CC1)CC2 [Example 130] | 8.04 |
| COc1ccc2c(c1OC)N(C1CCN(CCc3ccc(F)cc3)CC1)CC2 [Example 108] | 8.66 |
| CS(=O)(=O)NCc1ccc(CCN2CCC(N3CCc4ccccc43)CC2)cc1 [Example 38] | 7.66 |
| Brc1cnn(CCN2CCC(N3CCc4ccccc43)CC2)c1 [Example 68] | 7.40 |
| CC(=O)NCc1ccc2ccn(C3CCN(CCc4ccc(Cl)cc4)CC3)c2c1 [Example 349] | 8.09 |
| Fc1ccc(CCN2CCC(N3CCc4ccncc43)CC2)cc1 [Example 264] | 6.86 |
| c1ccc(CCN2CCC(N3CCc4ccccc43)CC2)nc1 [Example 50] | 7.28 |

---

Target: α1 adrenalin receptor
Experiment: Binding test on [3H] prazosin (α1 adrenalin receptor)
Parameters: species or system rat
Settings: [3H] prazosin about 0.2 nM, receptor fraction of rat cerebral cortex
Listed next: entries and their corresponding Ki.
Endpoint: Ki

| Molecule | Endpoint | Result |
| --- | --- | --- |
| CC(=O)NCc1ccc2ccn(C3CCN(CCc4ccc(Cl)cc4)CC3)c2c1 | Ki | 88.5 nM |
| CC(=O)NCc1ccc2ccn(C3CCN(CCc4ccc(F)cc4)CC3)c2c1 | Ki | 26.8 nM |
| CNCc1ccc2c(c1)N(C1CCN(CCc3ccc(F)cc3)CC1)CC2 | Ki | 223 nM |
| Fc1ccc(CCN2CCC(C3CCc4ccccc43)CC2)cc1 (centres unmarked) | Ki | 75.3 nM |
| O=Cc1ccc2ccn(C3CCN(CCc4ccccc4F)CC3)c2c1 | Ki | 34.3 nM |

---

Biological target: α1 adrenalin receptor
Assay: Binding test on [3H] prazosin (α1 adrenalin receptor)
Parameters: species or system rat
Conditions: [3H] prazosin about 0.2 nM, receptor fraction of rat cerebral cortex
pKi: −log10 of the molar value. Counter-ions that a name gives are not always drawn.
Endpoint: pKi

| Compound | Endpoint | Measured number |
| --- | --- | --- |
| CC(=O)NCc1ccc2c(C=O)cn(C3CCN(CCc4ccc(F)cc4)CC3)c2c1 | pKi | 6.59 |
| CC(=O)NCc1ccc2c(CO)cn(C3CCN(CCc4ccc(F)cc4)CC3)c2c1 | pKi | 6.69 |
| O=C(Cc1ccc2ccn(C3CCN(CCc4ccc(F)cc4)CC3)c2c1)NCCF | pKi | 7.07 |
| c1ccc2c(c1)CCN2C1CCN(CC2COc3ccccc3O2)CC1 (centres unmarked) | pKi | 6.60 |
| O=C(CO)NCc1ccc2ccn(C3CCN(CCc4ccccc4F)CC3)c2c1 | pKi | 6.92 |
| NS(=O)(=O)c1ccc(CCN2CCC(N3CCc4ccccc43)CC2)cc1 | pKi | 6.64 |
| CNOOSCc1ccc2c(c1)N(C1CCN(CCc3ccc(F)cc3)CC1)CC2 | pKi | 6.20 |
| O=C(Cc1ccc2ccn(C3CCN(CCc4ccc(F)cc4)CC3)c2c1)NCCN1CCCC1 [Example 312, Oxalate] | pKi | 7.27 |
| OCCOc1ccc(CCN2CCC(N3CCc4ccccc43)CC2)cc1 | pKi | 7.29 |
| CNC(=O)NCc1ccc2ccn(C3CCN(CCc4ccc(F)cc4)CC3)c2c1 | pKi | 7.57 |
| NC(=O)c1ccc2c(c1)N(C1CCN(CCc3ccc(F)cc3)CC1)CC2 | pKi | 7.33 |
| CC(C)NC(=O)Cc1ccc2c(c1)N(C1CCN(CCc3ccc(F)cc3)CC1)CC2 | pKi | 6.53 |
| OCc1cccc(CCN2CCC(N3CCc4ccccc43)CC2)c1 | pKi | 6.95 |
| O=C1CCC(=O)N1Cc1ccc2c(c1)N(C1CCN(CCc3ccc(F)cc3)CC1)CC2 | pKi | 6.74 |
| O=S(=O)(CCCCl)NCc1ccc2ccn(C3CCN(CCc4ccc(F)cc4)CC3)c2c1 | pKi | 7.33 |
| NC(=O)Cc1ccc2c(c1)N(C1CCN(CCc3ccc(F)cc3)CC1)CC2 | pKi | 6.80 |
| CC(O)c1ccc2c(c1)N(C1CCN(CCc3ccc(F)cc3)CC1)CC2 (centres unmarked) | pKi | 6.90 |
| OCCCc1ccc2ccn(C3CCN(CCc4ccc(F)cc4)CC3)c2c1 | pKi | 6.69 |
| COc1ccc2c(c1)N(C1CCN(CCc3ccc(F)cc3)CC1)CC2 | pKi | 7.15 |
| CC(=O)N1CCC(CNC(=O)Cc2ccc3ccn(C4CCN(CCc5ccc(F)cc5)CC4)c3c2)CC1 [Example 343, Oxalate] | pKi | 7.42 |
| CC(C)CNC(=O)Cc1ccc2ccn(C3CCN(CCc4ccc(F)cc4)CC3)c2c1 | pKi | 6.62 |
| CC(=O)NCc1ccc2ccn(C3CCN(CCCc4ccc(F)cc4)CC3)c2c1 | pKi | 6.16 |
| COc1ccc(CCN2CCC(n3ccc4ccc(CNC(C)=O)cc43)CC2)cc1 | pKi | 6.76 |
| CC(C)S(=O)(=O)NCc1ccc2ccn(C3CCN(CCc4ccc(F)cc4)CC3)c2c1 | pKi | 7.06 |
| COc1ccc2c(c1)CCCC2C1CCN(CCc2ccc(F)cc2)CC1 (centres unmarked) | pKi | 6.45 |
| Fc1ccc(CCN2CCC(N3CCc4ccc(F)cc43)CC2)cc1 | pKi | 7.11 |
| O=S1(=O)CCCN1Cc1ccc2ccn(C3CCN(CCc4ccc(F)cc4)CC3)c2c1 | pKi | 6.78 |
| OCCOc1ccc2c(c1)N(C1CCN(CCc3ccc(F)cc3)CC1)CC2 | pKi | 7.24 |
| CCNC(=O)Cc1ccc2ccn(C3CCN(CCc4ccccc4F)CC3)c2c1 | pKi | 7.13 |
| O=C(Cc1ccc2ccn(C3CCN(CCc4ccc(F)cc4)CC3)c2c1)N(CCO)CCO [Example 303, Oxalate] | pKi | 6.51 |
| CC(=O)NCc1ccc2c(c1)N(C1CCN(CCc3ccc(F)cc3)CC1)CC2 | pKi | 6.58 |
| CN(c1ccc2ccn(C3CCN(CCc4ccc(F)cc4)CC3)c2c1)S(C)(=O)=O | pKi | 7.55 |
| CC(O)c1ccc2ccn(C3CCN(CCc4ccc(F)cc4)CC3)c2c1 (centres unmarked) [Example 392, Oxalate] | pKi | 7.60 |
| O=C(Cc1ccc2ccn(C3CCN(CCc4ccc(F)cc4)CC3)c2c1)NC1CC1 | pKi | 6.71 |
| O=C(Cc1ccc2ccn(C3CCN(CCc4ccc(F)cc4)CC3)c2c1)N1CCC(O)CC1 | pKi | 6.84 |
